- Tested on: Streptococcus pyogenes SSI-9
- TEST_NAME: Antibacterial activity assay of bead-derived peptides (three concentrations)
- Type: cell-based
- Design: key: +++: inhibition by the 640-fold diluted peptide solution; ++: inhibition by the 160-fold diluted solution; +: inhibition by the 40-fold diluted solution; -: no inhibition
- APPLIED_CONDITIONS: S. pyogenes, bead-derived peptide solution, three concentrations
Where a SMILES comes first, the peptide text is derived from it. [ ]: non-standard residue; d: D form. The star is where a group is joined. NHCH2CH2OH = OCCN*; For = O=C*
ENDPOINT_NAME: antibacterial activity

[[record]]
compound = "CC(C)C[C@@H](NC(=O)[C@H](C)NC(=O)[C@H](NC(=O)[C@H](C)NC(=O)CNC(=O)[C@@H](NC=O)C(C)C)C(C)C)C(=O)N[C@H](C(=O)N[C@H](CC(C)C)C(=O)N[C@@H](Cc1c[nH]c2ccccc12)C(=O)N[C@@H](C(=O)N[C@@H](Cc1c[nH]c2ccccc12)C(=O)N[C@@H](C(=O)N[C@@H](Cc1c[nH]c2ccccc12)C(=O)N[C@@H](C(=O)N[C@@H](Cc1c[nH]c2ccccc12)C(=O)NCCO)C(C)C)C(C)C)C(C)C)C(C)C [compound 2832] (For-VGA[dV]A[dL]V[dL]W[dV]W[dV]W[dV]W-NHCH2CH2OH)"
recorded_measurement = "+"

[[record]]
compound = "CC(C)C[C@@H](NC(=O)[C@H](C)NC(=O)[C@H](NC(=O)[C@H](C)NC(=O)CNC(=O)[C@@H](NC=O)C(C)C)[C@H](C)O)C(=O)N[C@H](C(=O)N[C@H](CC(C)C)C(=O)N[C@@H](Cc1c[nH]c2ccccc12)C(=O)N[C@@H](C(=O)N[C@@H](Cc1c[nH]c2ccccc12)C(=O)N[C@H](CC(C)C)C(=O)N[C@@H](Cc1c[nH]c2ccccc12)C(=O)N[C@@H](C(=O)N[C@@H](Cc1c[nH]c2ccccc12)C(=O)NCCO)C(C)C)[C@H](C)O)C(C)C [compound 1284] (For-VGA[dT]A[dL]V[dL]W[dT]W[dL]W[dV]W-NHCH2CH2OH)"
recorded_measurement = "-"

